Recorded GI50 values for a group of compounds are listed next.
Test system: NCI-H522
Assay: NCI tumour cell line growth inhibition, 48 h
Calls of active or inactive are those of the source. Cut-off read from the data, not from the text of the source: active = GI50 up to about 1.1 µM and inactive = higher.

Observe how each entry below is paired with its result.
O=C(CCNC12CC3CC(CC(C3)C1)C2)c1ccccc1
17.3 µM (inactive)
[O-][S+](Nc1ccccc1)c1ccc(Cl)c(Cl)c1 (configuration not stated)
21.9 µM (inactive)
COc1ccc(C(=O)/C=C/c2ccc(O)c(O)c2F)c(OC)c1
0.327 µM (active)
Cc1ccc(S(=O)(=O)N/N=C2/CCCOC2)cc1
> 100 µM (inactive)
O=C(NNC(=O)/C(=C/c1cccc([N+](=O)[O-])c1)NC(=O)c1ccccc1)Nc1ccc(Cl)cc1
12.3 µM (inactive)

Req: Name the recorded GI50 of Cc1csc2nc(-c3cc([N+](=O)[O-])c(Cl)cc3Cl)c(/C=N/N=C(N)N)n12 , assay system NCI-H522.
Resp: 15.9 µM (inactive)

Req: Name the recorded GI50 of C(/Cc1ccc2c(c1)OCO2)=N\N=C1NCCCN1 , assay system NCI-H522.
Resp: 55.3 µM (inactive)

Req: Name the recorded GI50 of c1cc2c(cc1NC1=NCCO1)OCO2 , assay system NCI-H522.
Resp: > 100 µM (inactive)

Req: Name the recorded GI50 of C/C(=N\Nc1ccccc1)c1sc(-c2nc(C)c(/C(C)=N/Nc3ccccc3)s2)nc1C , assay system NCI-H522.
Resp: 18.1 µM (inactive)

Req: Name the recorded GI50 of C[C@@H]1CCC2[C@@H](C)C(=O)O[C@@H]3C4C[C@@H]1[C@@]23OO[C@@]4(C)O (some centres not stated) , assay system NCI-H522.
Resp: 40.8 µM (inactive)

Req: Name the recorded GI50 of CCCCCCCCC(=O)N(C)C1C2CN3CCC(O2)C13 (configuration not stated) , assay system NCI-H522.
Resp: > 100 µM (inactive)

Req: Name the recorded GI50 of Cc1cccc(C(O)c2ccccn2)c1O (configuration not stated) , assay system NCI-H522.
Resp: > 100 µM (inactive)

----------
System: MCF7
Test: NCI tumour cell line growth inhibition, 48 h
Active and inactive are the calls of the source. Cut-off read from the data, not from the text of the source: active = GI50 up to about 1.1 µM and inactive = higher.
Parameter call: string, one of yes (active), no (inactive)

Worked examples follow.
ClC(Cl)(Cl)C1=N[C@H]2[C@H](Br)[C@@H]3O[C@@H](c4ccccc4)[C@H](c4ccccc4)O[C@@H]3[C@H]2O1
no
CC[C@@]1(O)C[C@H](OC2CC(N(C)C)C(O)C(C)O2)c2c(cc3c(c2O)C(=O)c2c(O)ccc(O)c2C3=O)[C@H]1C(=O)OC (some centres undefined)
yes
CCOC1NC(=O)c2ccccc21 (centres undefined)
no

Attention now turns to another entry.
Req: // outcome(item) with item = COc1cccc(C2c3cc4c(cc3OC(C)(N3CCCC3)C2C)OCO4)c1OC (centres undefined)
Resp: no

----------
Recorded GI50 values for a group of compounds are listed next.
Test system: SK-MEL-2
Assay: NCI tumour cell line growth inhibition, 48 h
Calls of active or inactive are those of the source. No stated cut-off is given here; in the data, active = GI50 up to about 1.1 µM and inactive = higher.

Observe how each entry below is paired with its result.
CN(C)c1ccc(/C=C/c2ccnc3ccccc23)cc1N
8.65 µM (inactive)
CC(C)(C)c1ccc(-c2nc3ccc([N+](=O)[O-])cc3c(=O)o2)cc1
20.7 µM (inactive)
O=Cc1c(Cn2ccnc2)c2cc([N+](=O)[O-])ccc2n1Cc1ccccc1
> 100 µM (inactive)
CCOP(=O)(CC(=O)C1CC1)OCC
> 100 µM (inactive)
CCCCCCCCCCCCCCCCNCC(O)CN (stereo not drawn)
18.6 µM (inactive)
C/C(=N\Nc1ccccc1)c1sc(-c2nc(C)c(/C(C)=N/Nc3ccccc3)s2)nc1C
> 100 µM (inactive)

Req: Look up and report measured GI50 for this entry: O=[As](O)(O)c1ccc2nc3cc([As](=O)(O)O)ccc3nc2c1
Resp: > 100 µM (inactive)

Req: Look up and report measured GI50 for this entry: Cc1ccc(S(=O)(=O)NC(=O)NCCc2ccccc2)cc1
Resp: > 100 µM (inactive)

Req: Look up and report measured GI50 for this entry: COC(=O)[C@H](Cc1ccccc1)NC(=O)c1ccc(CNC(=O)/C=C/c2csc(-c3ccccc3)n2)cc1
Resp: 2.81 µM (inactive)

----------
Recorded GI50 values for a group of compounds are listed next.
Tested on: SN12C
Experiment: NCI tumour cell line growth inhibition, 48 h
Active and inactive are the calls of the source. No stated cut-off is given here; in the data, active = GI50 up to about 1.1 µM and inactive = higher.

Observe how each entry below is paired with its result.
CCN(CC)c1ccc2cc(-c3nc(O)c4ccccc4n3)c(=N)oc2c1
> 100 µM (inactive)
CC1=NNC(=O)C1C(CC(=O)c1c[nH]c2ccccc12)C(=O)O (stereo not drawn)
> 100 µM (inactive)
CCOc1cc(-c2nc3cc(F)ccc3s2)ccc1O
19.1 µM (inactive)
c1cc2c(cc1NC1=NCCO1)OCO2
> 100 µM (inactive)
COC1=CC(=O)N(C(=O)C2CSC(C(CO)NC(=O)c3csc(/C=N/O)n3)=N2)C1 (stereo not drawn)
> 100 µM (inactive)
N/N=C1/C(=N/O)CCc2nonc21
> 100 µM (inactive)
C#CCNC(=O)N(CC#C)N=O
> 100 µM (inactive)
N#Cc1nnc2c3c(-c4ccc(Cl)cc4)c(C#N)c(O)nc3nn2c1N
2.38 µM (inactive)

Req: Look up and report measured GI50 for this entry: Cc1cn2c(/C=C3/C(=O)Nc4ccccc43)c(-c3ccccc3)nc2s1
Resp: 93.1 µM (inactive)

Req: Look up and report measured GI50 for this entry: COC(=O)C(=O)C(C(=O)C=C(C)C)C(=O)C(=O)Nc1ccc(Cl)cc1C (stereo not drawn)
Resp: > 100 µM (inactive)

Req: Look up and report measured GI50 for this entry: O=C(c1ccccc1)C(C(=O)c1ccccc1)c1nc2ccccc2sc1=O
Resp: 6.22 µM (inactive)

Req: Look up and report measured GI50 for this entry: COC(=O)c1ccccc1CC1Cc2c(C)ccc(C)c2C1=O (stereo not drawn)
Resp: 45.3 µM (inactive)

Req: Look up and report measured GI50 for this entry: C=C1C(=O)OC2CC(=C)C3CC=C(C)C3CC12 (stereo not drawn)
Resp: 16.2 µM (inactive)

Req: Look up and report measured GI50 for this entry: CC(=O)OC1C[C@@H](C)C2(CC(c3ccoc3)OC2=O)C2CCC(O)C3(CO3)C12CO (stereo partly drawn)
Resp: > 100 µM (inactive)

Req: Look up and report measured GI50 for this entry: ClC(Cl)(Cl)C1CCOC1n1nc2ccccc2n1 (stereo not drawn)
Resp: > 100 µM (inactive)

----------
Recorded GI50 values for a group of molecules are listed next.
System: OVCAR-4
Assay: NCI tumour cell line growth inhibition, 48 h
Calls of active or inactive are those of the source. No stated cut-off is given here; in the data, active = GI50 up to about 1.1 µM and inactive = higher.

Observe how each entry below is paired with its result.
Cc1cc(O)cc2oc(=O)c3c(O)cc(O)cc3c12
65.3 µM (inactive)
Cn1c(N=[N+]=[N-])cc(=O)n(C)c1=O
> 100 µM (inactive)
CCOC(=N)/C(=C1\OC(=N)C(c2ccc(Cl)cc2)=C1O)c1ccc(Cl)cc1
11.8 µM (inactive)

Req: Look up and report measured GI50 for this entry: O=C(CC1C=Cc2ccccc2N1C(=O)c1ccccc1)c1ccccc1 (stereo not given)
Resp: 34.8 µM (inactive)

Req: Look up and report measured GI50 for this entry: Cc1c(-c2nnc(-c3ccc(Cl)cc3)o2)c(=O)n(-c2ccccc2)n1C
Resp: > 100 µM (inactive)

----------
Tested on: LOX IMVI
Assay: NCI tumour cell line growth inhibition, 48 h
Calls of active or inactive are those of the source. Cut-off read from the data, not from the text of the source: active = GI50 up to about 1.1 µM and inactive = higher. Where a SMILES comes first, the peptide text is derived from it. The star is where a group is joined. Cbz = O=C(OCc1ccccc1)*; Boc = CC(C)(C)OC(=O)*; tBu = CC(C)(C)*
Parameter call: string, one of active, inactive

Worked examples follow.
Cc1ccc(C2=C(C#N)C(N)OC3=C2COc2ccccc23)cc1 (stereo not given)
inactive
Nc1ccc2c(=S)c3ccccc3[nH]c2c1
inactive
COC(=O)C(Cc1ccc2c(c1)CCCC2)Cc1cc2c(cc1C(O)OC)CCC2 (stereo not given)
inactive
c1ccc2c(c1)NC1(N3CCCCC3)CCCCC21 (stereo not given)
inactive
CC(OC(C)(C)C)C(NC(=O)C(CCCCNC(=O)OC(C)(C)C)NC(=O)C(Cc1c[nH]c2ccccc12)NC(=O)C(Cc1ccccc1)NC(=O)OCc1ccccc1)C(=O)NC(Cc1ccccc1)C(=O)O (stereo not given) (Cbz-FWK(Boc)T(tBu)F-OH; configuration not given here)
inactive
CCN1C[C@]2(C)CC[C@H](O)C34C1C(C[C@@H]32)[C@@]1(O)CC[C@H]2C[C@@H]4[C@@H]1[C@H]2O
inactive

Req: // outcome(item) with item = CC1=NN(c2nc(N)nc(/C(C#N)=C\c3ccc([N+](=O)[O-])s3)n2)C(C)(C)C1
Resp: active

Req: // outcome(item) with item = NC(=O)NC(=O)c1cccc(NC(=O)CBr)c1
Resp: active

Req: // outcome(item) with item = O=[N+]([O-])/C(Cl)=C(\Nc1ccccc1)C(Cl)=C(Cl)Cl
Resp: inactive

Req: // outcome(item) with item = Cc1c(C#N)c2nnn(-c3cccc(Cl)c3)c(=O)n2c1-c1ccccc1
Resp: inactive
